Tested on: A498 renal
Experiment: NCI tumour cell line growth inhibition, 48 h
QUANTITY: TGI

Problem: Looking for the measured TGI of Nc1ccccc1N=Nc1c(S(=O)(=O)O)cc2cc(S(=O)(=O)O)cc(O)c2c1O , can you help?
Solution: > 100 µM

Problem: And then CCC1=NC(C(F)(F)F)(C(F)(F)F)N=C(/N=C(/N)N(C)C(C(C)C)P(=O)(OC(C)C)OC(C)C)O1 (stereo not drawn) , what is it?
Solution: > 100 µM

Problem: Next molecule: O=[N+]([O-])c1nccn1CCCNCCCn1ccnc1[N+](=O)[O-]
Solution: > 100 µM

* * *

Tested on: M14 melanoma
Test: NCI tumour cell line growth inhibition, 48 h
QUANTITY: TGI

Problem: State the recorded TGI for this entry: CCC(=O)NCCc1c2c3c(ccnc3c3ncsc13)-c1ccccc1N2
Solution: > 100 µM

Problem: Entry CSc1nc(NC2OC(COC(C)=O)C(OC(C)=O)C(OC(C)=O)C2OC(C)=O)c(N=C(C)C(C)=O)c(=O)n1C (stereo unspecified) please
Solution: > 100 µM

Problem: Would you mind doing O=S(=O)(Nc1ccc2ccccc2c1)c1ccc(-c2cnc(C3CC3)o2)cc1 as well?
Solution: 14.9 µM

Problem: Follow-up entry: O=C1CN(c2ccc(Cl)cc2)C(=O)CN1NCNN1CC(=O)N(c2ccc(Cl)cc2)CC1=O
Solution: > 100 µM

Problem: Let us now turn to O=S(=O)(OI(O)CC(F)(F)F)C(F)(F)F
Solution: > 100 µM

Problem: Also, COc1cc2c(cc1OC)c1c(OC)c(OC)cc3c1c1c2sc(=S)n1CC3 please.
Solution: 35.1 µM

* * *

Please respond with reported TGI for every item in the list.
Tested on: COLO 205 colon
Assay: NCI tumour cell line growth inhibition, 48 h

Problem: Can you look up TGI on COLO 205 colon for O=C(NN1C(=O)CSC12CCCC2)C(O)c1ccccc1 (stereo not drawn) ?
Solution: > 100 µM

Problem: How about Cc1nc(Nc2ccccc2)sc1C(=O)CC(=O)C(=O)NC12CC3CC(CC(C3)C1)C2 ?
Solution: > 100 µM

Problem: Lookup COc1cc(-c2ccc(NC(=O)NC3CC3)c(OC)c2)ccc1NC(=O)NC1CC1
Solution: > 100 µM

Problem: Please do the same for O=C1CN(c2ccc(Cl)cc2)C(=O)CN1NCNN1CC(=O)N(c2ccc(Cl)cc2)CC1=O as well.
Solution: > 100 µM

Problem: // next record CC(=O)OCC(OC(C)=O)C(OC(C)=O)C(OC(C)=O)C(/C=N\Nc1nc2ccccc2c(=O)[nH]1)=N/Nc1nc2ccccc2c(=O)[nH]1 (stereo not drawn)
Solution: > 100 µM

Problem: And COc1ccc2c(CCNS(=O)(=O)c3ccccc3)c(C(C)=O)[nH]c2c1 ?
Solution: > 100 µM

Problem: Subsequent entry: O=[N+]([O-])c1cccc2nc3ccccc3c(NCCCN3CCCCC3)c12
Solution: 0.0201 µM

Problem: Try this compound next: NC(=O)C(Nc1ccc(Cl)cc1)c1cc2cc(Br)ccc2nc1Cl (stereo not drawn)
Solution: > 50 µM

Problem: Another compound: CC(=O)O[C@@H]1O[Si](C(C)(C)C)(C(C)(C)C)[C@H](C)[C@H]1C
Solution: > 100 µM

Problem: Same for c1ccc(C2=Nc3cccc4cccc(c34)N2)cc1
Solution: 40.9 µM

Problem: N#Cc1c(N)c(C#N)c2c(c1-c1ccc(Cl)cc1)COc1ccccc1-2 ?
Solution: > 100 µM

Problem: Param item: CC(O[Si](c1ccccc1)(c1ccccc1)C(C)(C)C)[C@H](NC(=O)OC(C)(C)C)C(=O)O (stereo partly drawn)
Solution: 46.1 µM

Problem: Quick one: COc1ccc2nc3n(c2c1)C(c1c(Cl)cccc1Cl)SC3 (stereo not drawn)
Solution: > 100 µM

Problem: Please answer likewise for COc1ccc(NC(=O)CCc2cc(C(C)(C)C)n[nH]2)cc1
Solution: > 100 µM

Problem: Also check COc1cc(C23OCC(Cc4cc5c(cc42)OCO5)C3CO)cc(OC)c1OC (stereo not drawn)
Solution: > 100 µM

Problem: Another compound to check: O=C1NC(S(=O)(=O)O)=NNC12c1ccccc1-c1ccccc12
Solution: > 10 µM

Problem: One more compound: CC1CCc2c(c(CC3CC(=O)NC(=O)C3)nn2-c2ccccc2)C1 (stereo not drawn)
Solution: > 100 µM

Problem: Same question, Cc1cc(NNC(=O)c2ccccc2O)nc(Nc2nc3ccccc3o2)n1 this time
Solution: 15.4 µM

Problem: Moving on to COc1cc2c(c(OC(C)=O)c1OC(C)=O)-c1ccc(SC)c(=O)cc1C(NC(C)=O)CC2 (stereo not drawn)
Solution: 3.13 µM

Problem: Repeat for the following compound: CCN(CC)CCNc1ccc2nnn3c4ccccc4c(=O)c1c23
Solution: 16.2 µM

Problem: # iterate: N#CCCN(CCC#N)c1ccc(C(N=Nc2ccc(Cl)cc2)=Nc2ccc(F)cc2)cc1
Solution: > 100 µM

Problem: Param item: CCOC(=O)C1SC(=Nc2ccc(Cl)cc2C)N=C1C (stereo not drawn)
Solution: 31 µM

Problem: Would you mind doing NC(N)=NS(=O)(=O)c1ccc(NC(=O)c2ccc3[nH]c4ccccc4c(=O)c3c2)cc1 as well?
Solution: > 100 µM

Problem: Queued: Cc1cc(C)nc(NS(=O)(=O)c2ccc(NC(=O)c3ccc(Cl)c4c(Nc5ccc(S(=O)(=O)N=C(N)N)cc5)c5ccccc5nc34)cc2)n1
Solution: > 100 µM

Problem: Follow-up entry: O=C(/C=C/c1ccc(O)c(O)c1)NCCc1ccc(-c2ccccc2)cc1
Solution: > 100 µM

Problem: Moving on to the next compound: CC(=O)NC(CCCCN(Cc1ccccc1)C(=O)N(CCCl)N=O)C(=O)NCc1ccccc1 (stereo not drawn)
Solution: 67.2 µM

Problem: Ok, now Cn1nc(-c2ccccc2)c(C(=O)/C=C/c2ccc(F)cc2)c(N2CCOCC2)c1=O
Solution: 34.6 µM

Problem: Also check COc1ccc(CNc2cnc3cc(N)cc(N)c3n2)cc1
Solution: > 100 µM
